System: UACC-257 melanoma
Assay: NCI tumour cell line growth inhibition, 48 h
measured.property: TGI

Worked set:
Form: molecule = CC1(O)C(C)(O)C2(C)O[Te]3(OC12C)OC1(C)C(C)(O)C(C)(O)C1(C)O3 (stereo unspecified) ; TGI = > 100 µM

Form: molecule = NC1=NN(c2ccccc2)C(=O)C1C(=O)CCC(=O)Nc1cccc(Cl)c1 (stereo unspecified) ; TGI = > 100 µM

Form: molecule = Nc1ncnc2c1ncn2C1C=C(CO)C(O)C1O (stereo unspecified) ; TGI = > 100 µM

Form: molecule = `CCCCCCCCn1ccc2cc(NC(=O)Cn3cc(CN4CCCCCC4)nn3)ccc21` ; TGI = 3.58 µM

Next:
Form: molecule = `CCCCCCNCCc1cnc[nH]1` ; TGI = > 100 µM

Form: molecule = `CNc1ncccc1Nc1cc(=O)n2c3cccnc3n(C)c2c1` ; TGI = > 100 µM
